- Tested on: HIV-1NL4-3 Wild Type
- Method description: Luminescence reduction assay, MT4 cells infected with HIV-1NL4-3 luciferase reporter virus, wild type
- Format: cell-based
- Experimental parameters: Human immunodeficiency virus 1, MT4, MT4 cells, 2% FCS
- Text: For this assay, HIV-1NL4-3 reporter viruses are used, which carry the luciferase164 gene (lu164) instead of the nef gene. The viruses are generated by transfection of 293T cells with the corresponding proviral pNL4-3 plasmid (Lipofectamine Reagent, Invitrogen, Karlsruhe, Germany). […] MT4 cells infected with these reporter viruses (NIH AIDS Research and Reference Reagent Program) secrete luciferase into the medium, which makes possible the luminometric quantification of the virus replication. […]
Field: label. Allowed values: yes (1) (EC50 < 0.01 µM) or no (0) (EC50 >= 0.01 µM).

Below, 6 molecules whose answers are already recorded.
molecule="COc1cc(OC(F)(F)F)cc(-c2cc(C(=O)N3CCNC(=O)C3)nn2-c2cccnc2)c1 [Example 85]" system_name="HIV-1NL4-3 Wild Type" class_label="no (0)"
molecule="O=C1CN(C(=O)c2cc(-c3cc(F)cc(OC(F)F)c3)n(-c3cccnc3)n2)CCN1 [Example 67]" system_name="HIV-1NL4-3 Wild Type" class_label="no (0)"
molecule="O=C(c1cc(-c2cc(Br)cc(OC(F)(F)F)c2)n(-c2ccc(F)nc2)n1)N1CCSC1 [Example 41]" system_name="HIV-1NL4-3 Wild Type" class_label="no (0)"
molecule="O=C1CN(C(=O)c2cc(-c3cc(F)cc(OC(F)F)c3)n(-c3cccnc3)n2)CN1 [Example 66]" system_name="HIV-1NL4-3 Wild Type" class_label="no (0)"
molecule="O=C1CN(C(=O)c2cc(-c3cc(Br)cc(OC(F)(F)F)c3)n(-c3cccnc3)n2)CCN1 [Example 29]" system_name="HIV-1NL4-3 Wild Type" class_label="no (0)"
molecule="O=C(c1cc(-c2cc(Cl)cc(OC(F)F)c2)n(-c2cccnc2)n1)N1CCS(=O)(=O)C1 [Example 83]" system_name="HIV-1NL4-3 Wild Type" class_label="yes (1)"

Is EC50 strictly under 0.01 µM for the entry O=C1CN(C(=O)c2cc(-c3cc(Br)cc(OC(F)(F)F)c3)n(-c3cncc(F)c3)n2)CN1 [Example 44] ?
no (0)

Is EC50 strictly under 0.01 µM for the entry O=C1CN(C(=O)c2cc(-c3cc(Br)cc(OC(F)(F)F)c3)n(-c3cncc(Cl)c3)n2)CN1 [Example 42] ?
no (0)

Is EC50 strictly under 0.01 µM for the entry Cc1cc(-n2nc(C(=O)N3CCNC(=O)C3)cc2-c2cc(Br)cc(OC(F)(F)F)c2)ccn1 [Example 54] ?
no (0)

Is EC50 strictly under 0.01 µM for the entry COc1cc(Br)cc(-c2cc(C(=O)N3CNC(=O)C3)nn2-c2ccnc(Cl)c2)c1 [Example 96] ?
yes (1)

Is EC50 strictly under 0.01 µM for the entry O=C1CN(C(=O)c2cc(-c3ccnc(Cl)c3)n(-c3ccc(F)c(Cl)c3)n2)CN1 [Example 112] ?
no (0)

* * *

- System: HIV-1LAI Wild Type
- Method description: AlamarBlue viability assay, HIV-1LAI-infected MT4 cells
- Format: cell-based
- Experimental parameters: Human immunodeficiency virus 1, MT4, MT4 cells, 10% FCS
- Method: For the batch of a 96-well MTP, 3 million PBLs are pelletized, suspended in 1 ml of RPMI 1640 medium/10% FCS/2 mmol of L-glutamine/1% Pen/Strep, and incubated together with a suitable amount of HIV-1LA1 (NIH AIDS Research & Reference Reagent Program, Germantown, USA) for 2 hours at 37° C. (pellet infection). […]
Assignment: determine reported log10(EC50) for the given compounds.
A value of 2 here means EC50 of 100 in µM, since values are log10.

Below: 4 compounds and their reported log10(EC50).
smiles=Cc1cc(-n2nc(C(=O)N3CCNC(=O)C3)cc2-c2cc(Br)cc(OC(F)(F)F)c2)ccn1 system_name="HIV-1LAI Wild Type" parameter=log10(EC50) result=0.23
smiles=O=C1CN(C(=O)c2cc(-c3cc(F)cc(OC(F)(F)F)c3)n(-c3cccnc3)n2)CCN1 system_name="HIV-1LAI Wild Type" parameter=log10(EC50) result=-0.02
smiles=O=C1CN(C(=O)c2cc(-c3cc(F)cc(Cl)c3)n(-c3ccncc3)n2)CN1 system_name="HIV-1LAI Wild Type" parameter=log10(EC50) result=0.13
smiles=O=C(c1cc(-c2cc(Br)cc(OC(F)(F)F)c2)n(-c2cccnc2)n1)N1CCS(=O)(=O)C1 system_name="HIV-1LAI Wild Type" parameter=log10(EC50) result=-1.08

Please give log10(EC50), item by item, for the list that follows.
1. O=C1CN(C(=O)c2cc(-c3cc(F)cc(OC(F)F)c3)n(-c3ccnc(Cl)c3)n2)CCN1
2. O=C1CN(C(=O)c2cc(-c3cnc(F)c(Cl)c3)n(-c3ccc(F)c(Cl)c3)n2)CN1
3. O=C1CN(C(=O)c2cc(-c3cc(Cl)cc(OC(F)(F)F)c3)n(-c3cccnc3)n2)CN1
4. O=C1CN(C(=O)c2cc(-c3cncc(C(F)(F)F)c3)n(-c3cccc(Cl)c3)n2)CCN1
5. O=C1CN(C(=O)c2cc(-c3cc(Br)cc(OC(F)(F)F)c3)n(-c3ccc(F)nc3)n2)CN1
6. O=C1CN(C(=O)c2cc(-c3cc(F)cc(Cl)c3)n(-c3ccc(Cl)nc3)n2)CN1
7. O=C(c1cc(-c2cc(F)cc(Cl)c2)n(-c2ccnc(C(F)(F)F)c2)n1)N1CCS(=O)(=O)C1
8. COc1cncc(-c2cc(C(=O)N3CCNC(=O)C3)nn2-c2ccc(F)c(Cl)c2)c1

[0.30, -1.62, -0.68, -0.61, -1.21, -1.19, 0.16, -0.11]

Please give log10(EC50), item by item, for the list that follows.
1. O=C(c1cc(-c2cc(Br)cc(OC(F)(F)F)c2)n(-c2ccc[n+]([O-])c2)n1)N1CCS(=O)(=O)C1
2. O=C(c1cc(-c2cc(Br)cc(OC(F)(F)F)c2)n(-c2ccc(Cl)nc2)n1)N1CCS(=O)(=O)C1
3. COc1cncc(-c2cc(C(=O)N3CNC(=O)C3)nn2-c2ccc(F)c(Cl)c2)c1
4. N#Cc1cc(OC(F)(F)F)cc(-c2cc(C(=O)N3CNC(=O)C3)nn2-c2cccnc2)c1
5. O=C1CN(C(=O)c2cc(-c3cncc(C(F)(F)F)c3)n(-c3cccc(Cl)c3)n2)CN1

0.01
0.09
-0.95
-0.73
-1.44

Item Cc1ccc(-n2nc(C(=O)N3CNC(=O)C3)cc2-c2cc(Br)cc(OC(F)(F)F)c2)cn1 with HIV-1LAI Wild Type - log10(EC50)?
-1.01
